Hey, just so you know, these numbers are from ChEMBL document CHEMBL1154258.

experiment: Half life in po dosed rat; assay type: ADME, organism-based; conditions: in vivo
PARAMETER: half-life (h)
Please give a number only; it is taken to be in h.

Which half-life reading was recorded for the molecule CNc1cc2nc(NCc3cccnc3)nc(C(=O)c3cccs3)c2s1 ?
0.93

With those in mind, consider the next molecule.
Which half-life reading was recorded for the molecule C[C@H](Nc1nc(C(=O)N2CCCC2)c2sccc2n1)c1cccnc1 ?
2.3

---

target: Adenosine receptor A2b (Homo sapiens, UniProt P29275); assay: Antagonist activity at human adenosine A2B receptor expressed in CHOK1 cells assessed as inhibition of calcium mobilization by FLIPR assay
Sequence (P29275 whole entry): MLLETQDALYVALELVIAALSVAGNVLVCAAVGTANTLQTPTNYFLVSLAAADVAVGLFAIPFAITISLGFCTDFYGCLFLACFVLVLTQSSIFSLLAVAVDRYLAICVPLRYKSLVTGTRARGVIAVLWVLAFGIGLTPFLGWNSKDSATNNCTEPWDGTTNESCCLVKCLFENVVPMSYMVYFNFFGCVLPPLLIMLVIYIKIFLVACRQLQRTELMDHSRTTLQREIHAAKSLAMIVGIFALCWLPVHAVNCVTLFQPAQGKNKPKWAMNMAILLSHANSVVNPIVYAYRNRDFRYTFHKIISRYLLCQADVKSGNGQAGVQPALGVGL
PARAMETER: pIC50
Note on pIC50: it is the negative log10 of concentration, concentration in mol/L.

Which pIC50 reading was recorded for the molecule Cc1ccc(C(=O)c2nc(NC(=O)c3cccnc3)nc3ccsc23)s1 ?
6.54

Which pIC50 reading was recorded for the molecule Cc1ccc(C(=O)c2nc(NCc3ccncn3)nc3ccsc23)s1 ?
7.04

Which pIC50 reading was recorded for the molecule Cc1ccc(C(=O)c2nc(NC(C)c3ccccc3)nc3ccsc23)s1 (configuration not stated) ?
6.38

Which pIC50 reading was recorded for the molecule CNc1cc2nc(NCc3cccnc3)nc(C(=O)c3cccs3)c2s1 ?
8.46

Which pIC50 reading was recorded for the molecule O=C(c1ccsc1)c1nc(NCc2cccnc2)nc2ccsc12 ?
6.83

New cases:
Which pIC50 reading was recorded for the molecule C[C@@H](Nc1nc(C(=O)N2CCCC2)c2sccc2n1)c1cccnc1 ?
5.51

Which pIC50 reading was recorded for the molecule CC(C)NC(=O)c1nc(NCc2cccnc2)nc2ccsc12 ?
6.51

Which pIC50 reading was recorded for the molecule O=C(c1nc(NCc2cccnc2)nc2ccsc12)N1CCCC1 ?
6.72

Which pIC50 reading was recorded for the molecule O=C(c1ccc(Cl)s1)c1nc(NCc2cccnc2)nc2ccsc12 ?
6.31

Which pIC50 reading was recorded for the molecule CCNC(=O)c1nc(NCc2cccnc2)nc2ccsc12 ?
6.92

Which pIC50 reading was recorded for the molecule CCc1nc(C(=O)c2ccc(C)s2)c2sccc2n1 ?
5.44

---

molecular target: UniProt P29275; assay: Antagonist activity at human adenosine A2B receptor expressed in CHOK1 cells assessed as inhibition of calcium mobilization by FLIPR assay
Property: IC50; scope: individual molecules

Illustrative cases are given below, each with its answer.
Which IC50 reading was recorded for the molecule Cc1ccc(C(=O)c2nc(NCCc3ccccn3)nc3ccsc23)s1 ?
944 nM

Which IC50 reading was recorded for the molecule Cc1ccc(C(=O)c2nc(NCc3cccnc3)nc3ccsc23)o1 ?
468 nM

Which IC50 reading was recorded for the molecule CN(C)c1cc2nc(NCc3cccnc3)nc(C(=O)c3cccs3)c2s1 ?
39 nM

Which IC50 reading was recorded for the molecule CNC(=O)c1nc(NCc2cccnc2)nc2ccsc12 ?
495 nM

Which IC50 reading was recorded for the molecule Cc1ccc(C(=O)c2nc(NCc3ccccn3)nc3ccsc23)s1 ?
43 nM

With those in mind, consider the next molecule.
Which IC50 reading was recorded for the molecule O=C(c1ccccc1)c1nc(NCc2cccnc2)nc2ccsc12 ?
511 nM
